Source: ChEMBL document CHEMBL1135272

# Test system: A549
# assaySummary: Compound was tested for its ability to inhibit tumor necrosis factor alpha (TNF alpha) induced apoptosis in A549 human lung carcinoma cell line at 20 uM concentration
# Assay type: functional
measuredEndpoint: inhibition at 20 µM (%)
Write the number in % without appending the unit.

Take a look at these entries with their results.
{"columns": ["molecule", "inhibition at 20 µM (%)"],
 "data": [
  ["C[Si](C)(C)CCOC(=O)C1C2CC(=O)C(c3cc(O)ccc32)C1C(=O)OCCN1CCOCC1 (centres undefined)", 43],
  ["C=CCNC(=O)C1C2C(=O)CC(c3ccc(O)cc32)C1C(=O)OCC[Si](C)(C)C (centres undefined)", 18],
  ["CCCOC(=O)C1C2C(=O)CC(c3ccccc32)C1C(=O)OCC[Si](C)(C)C (centres undefined)", 38]
]}

# input for lookup
[ask] // map CCCOC(=O)C1C2C(=O)CC(c3ccc(OCc4ccccn4)cc32)C1C(=O)OCC[Si](C)(C)C (centres undefined) to recorded inhibition at 20 µM (system: A549)
[reply] 47

---

# Tested on: A549
# assaySummary: Compound was tested for its ability to inhibit tumor necrosis factor alpha (TNF alpha) induced apoptosis in A549 human lung carcinoma cell line at 20 uM concentration
# Type: functional
Listed below: inhibition at 20 µM values for each entry.
Only the number, expressed in %, is required.

Examples with their reported inhibition at 20 µM follow.
{"columns": ["molecule", "measuredEndpoint", "obsValue"],
 "data": [
  ["C[Si](C)(C)CCOC(=O)C1C2CC(=O)C(c3cc(O)ccc32)C1NC(=O)OCc1ccc(-c2ccccc2)cc1 (centres undefined)", "inhibition at 20 µM", 0],
  ["C[Si](C)(C)CCOC(=O)C1C2CC(=O)C(c3cc(O)ccc32)C1NC(=O)NCc1cccnc1 (centres undefined)", "inhibition at 20 µM", 11],
  ["CCCOC(=O)C1C2C(=O)CC(c3ccc(OCC(=O)O)cc32)C1C(=O)OCC[Si](C)(C)C (centres undefined)", "inhibition at 20 µM", 13]
]}

[ask] What measured inhibition at 20 µM goes with C=CCNC(=O)NC1C2C(=O)CC(c3ccc(O)cc32)C1C(=O)OCC[Si](C)(C)C (centres undefined) ?
[reply] 23
